- assay_explanation: in vivo
- condition_label: C57BL/6, mouse, plasma, iv, 8 mg/kg
endpoint_label: concentration at 0.25 h (µM)
Reply numerically in µM, unit not repeated.

Look up concentration at 0.25 h for this compound: Cc1ccc2nc(-c3ccc(NCCOCCOCCOCCNC(=O)COc4cccc5c4C(=O)N(C4CCC(=O)NC4=O)C5=O)cc3)sc2c1 (stereo unspecified) 67.2

----------
- assay_explanation: in vivo
- condition_label: rat, iv, 8 mg/kg
endpoint_label: Vd at 24 h (L/kg)
Reply numerically in L/kg, unit not repeated.

Look up Vd at 24 h for this compound: Cc1ccc2nc(-c3ccc(NCCOCCOCCOCCNC(=O)COc4cccc5c4C(=O)N(C4CCC(=O)NC4=O)C5=O)cc3)sc2c1 (stereo unspecified) 0.92

----------
- assay_explanation: in vivo
- condition_label: C57BL/6, mouse, plasma, iv, 8 mg/kg
endpoint_label: half-life at 24 h (h)
Reply numerically in h, unit not repeated.

Look up half-life at 24 h for this compound: Cc1ccc2nc(-c3ccc(NCCOCCOCCOCCNC(=O)COc4cccc5c4C(=O)N(C4CCC(=O)NC4=O)C5=O)cc3)sc2c1 (stereo unspecified) 3.24

----------
- assay_explanation: in vitro
- condition_label: C57BL/6, mouse, brain
endpoint_label: fraction unbound at 24 h
Field format: numeric only.

Look up fraction unbound at 24 h for this compound: Cc1ccc2nc(-c3ccc(NCCOCCOCCOCCNC(=O)COc4cccc5c4C(=O)N(C4CCC(=O)NC4=O)C5=O)cc3)sc2c1 (stereo unspecified) 0.397

----------
- assay_explanation: in vivo
- condition_label: C57BL/6, mouse, brain, iv, 8 mg/kg
endpoint_label: concentration at 0.25 h (nM)
Reply numerically in nM, unit not repeated.

Look up concentration at 0.25 h for this compound: Cc1ccc2nc(-c3ccc(NCCOCCOCCOCCNC(=O)COc4cccc5c4C(=O)N(C4CCC(=O)NC4=O)C5=O)cc3)sc2c1 (stereo unspecified) 1730

----------
- assay_explanation: in vivo
- condition_label: rat, iv, 8 mg/kg
endpoint_label: half-life at 24 h (h)
Reply numerically in h, unit not repeated.

Look up half-life at 24 h for this molecule: Cc1ccc2nc(-c3ccc(NCCOCCOCCOCCNC(=O)COc4cccc5c4C(=O)N(C4CCC(=O)NC4=O)C5=O)cc3)sc2c1 (stereo unspecified) 3.78

----------
- assay_explanation: in vivo
- condition_label: C57BL/6, mouse, iv, 8 mg/kg
endpoint_label: AUC(0-t) at 24 h (µM·h)
Reply numerically in µM·h, unit not repeated.

Look up AUC(0-t) at 24 h for this compound: Cc1ccc2nc(-c3ccc(NCCOCCOCCOCCNC(=O)COc4cccc5c4C(=O)N(C4CCC(=O)NC4=O)C5=O)cc3)sc2c1 (stereo unspecified) 109

----------
- assay_explanation: in vivo
- condition_label: C57BL/6, mouse, iv, 8 mg/kg
endpoint_label: Vd at 24 h (L/kg)
Reply numerically in L/kg, unit not repeated.

Look up Vd at 24 h for this compound: Cc1ccc2nc(-c3ccc(NCCOCCOCCOCCNC(=O)COc4cccc5c4C(=O)N(C4CCC(=O)NC4=O)C5=O)cc3)sc2c1 (stereo unspecified) 0.48

----------
- assay_explanation: in vivo
- condition_label: rat, iv, 8 mg/kg
endpoint_label: AUC(0-t) at 24 h

Look up AUC(0-t) at 24 h for this molecule: Cc1ccc2nc(-c3ccc(NCCOCCOCCOCCNC(=O)COc4cccc5c4C(=O)N(C4CCC(=O)NC4=O)C5=O)cc3)sc2c1 (stereo unspecified) 65.4 µM·h
